Target: T1, RBFOX1 RRM (Homo sapiens, UniProt Q9NWB1 109-208)
T1 sequence: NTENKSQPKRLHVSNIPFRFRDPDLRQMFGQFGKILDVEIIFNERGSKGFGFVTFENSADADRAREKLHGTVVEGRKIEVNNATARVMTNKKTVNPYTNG
Assay: EMSA; HiTS-Eq, 1 nM pool, 10 min; buffer printed only for the single-RNA assays: 10 mM Tris pH 7.5, 150 mM NaCl, 3.4 mM EDTA, 0.001% NP-40, 30 C
Settings: tags: His6 N-terminal (pET28a); label: 5' 32P
In all, about 16,000 sequences were measured (“ka relative to ugcaugu”: median about 0.0091, highest 2% from about 0.032 on). The list comes from a sample in which the highest values are over-represented; it also holds close analogues and randomly drawn sequences.
assay_endpoint: binding signal

[[record]]
binder = "CCACCGU (DNA:RNA) RNA: GGGAGACCGGAAUUCAGAUUGUCCCCACCGUUUAAAUCCCGUCGUAGCCACCA DNA 1: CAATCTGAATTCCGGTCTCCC DNA 2: TGGTGGCTACGACGGGATT"
assay_endpoint = "binding signal"
assay_value = "0.0012 KA relative to UGCAUGU"

[[record]]
binder = "AGGGUAG (DNA:RNA) RNA: GGGAGACCGGAAUUCAGAUUGUCCAGGGUAGUUAAAUCCCGUCGUAGCCACCA DNA 1: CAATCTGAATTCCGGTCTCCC DNA 2: TGGTGGCTACGACGGGATT"
assay_endpoint = "binding signal"
assay_value = "0.0176 KA relative to UGCAUGU"

[[record]]
binder = "UGUGGAC (DNA:RNA) RNA: GGGAGACCGGAAUUCAGAUUGUCCUGUGGACUUAAAUCCCGUCGUAGCCACCA DNA 1: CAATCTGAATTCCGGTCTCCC DNA 2: TGGTGGCTACGACGGGATT"
assay_endpoint = "binding signal"
assay_value = "0.00524 KA relative to UGCAUGU"

[[record]]
binder = "UCAUGUU (DNA:RNA) RNA: GGGAGACCGGAAUUCAGAUUGUCCUCAUGUUUUAAAUCCCGUCGUAGCCACCA DNA 1: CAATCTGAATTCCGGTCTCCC DNA 2: TGGTGGCTACGACGGGATT"
assay_endpoint = "binding signal"
assay_value = "0.0106 KA relative to UGCAUGU"

[[record]]
binder = "GAGGGGG (DNA:RNA) RNA: GGGAGACCGGAAUUCAGAUUGUCCGAGGGGGUUAAAUCCCGUCGUAGCCACCA DNA 1: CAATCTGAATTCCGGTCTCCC DNA 2: TGGTGGCTACGACGGGATT"
assay_endpoint = "binding signal"
assay_value = "0.0168 KA relative to UGCAUGU"

[[record]]
binder = "GCUACAC (DNA:RNA) RNA: GGGAGACCGGAAUUCAGAUUGUCCGCUACACUUAAAUCCCGUCGUAGCCACCA DNA 1: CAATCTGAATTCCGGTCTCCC DNA 2: TGGTGGCTACGACGGGATT"
assay_endpoint = "binding signal"
assay_value = "0.00819 KA relative to UGCAUGU"

[[record]]
binder = "UUAUCUG (DNA:RNA) RNA: GGGAGACCGGAAUUCAGAUUGUCCUUAUCUGUUAAAUCCCGUCGUAGCCACCA DNA 1: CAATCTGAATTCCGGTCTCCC DNA 2: TGGTGGCTACGACGGGATT"
assay_endpoint = "binding signal"
assay_value = "0.0132 KA relative to UGCAUGU"

[[record]]
binder = "UGGAGAC (DNA:RNA) RNA: GGGAGACCGGAAUUCAGAUUGUCCUGGAGACUUAAAUCCCGUCGUAGCCACCA DNA 1: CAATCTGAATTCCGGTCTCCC DNA 2: TGGTGGCTACGACGGGATT"
assay_endpoint = "binding signal"
assay_value = "0.007 KA relative to UGCAUGU"

[[record]]
binder = "GUACGUA (DNA:RNA) RNA: GGGAGACCGGAAUUCAGAUUGUCCGUACGUAUUAAAUCCCGUCGUAGCCACCA DNA 1: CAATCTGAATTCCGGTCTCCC DNA 2: TGGTGGCTACGACGGGATT"
assay_endpoint = "binding signal"
assay_value = "0.0085 KA relative to UGCAUGU"

[[record]]
binder = "AGGACUG (DNA:RNA) RNA: GGGAGACCGGAAUUCAGAUUGUCCAGGACUGUUAAAUCCCGUCGUAGCCACCA DNA 1: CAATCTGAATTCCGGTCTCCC DNA 2: TGGTGGCTACGACGGGATT"
assay_endpoint = "binding signal"
assay_value = "0.0275 KA relative to UGCAUGU"

[[record]]
binder = "UACAUAC (DNA:RNA) RNA: GGGAGACCGGAAUUCAGAUUGUCCUACAUACUUAAAUCCCGUCGUAGCCACCA DNA 1: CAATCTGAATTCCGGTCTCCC DNA 2: TGGTGGCTACGACGGGATT"
assay_endpoint = "binding signal"
assay_value = "0.00108 KA relative to UGCAUGU"

[[record]]
binder = "CUUGGGA (DNA:RNA) RNA: GGGAGACCGGAAUUCAGAUUGUCCCUUGGGAUUAAAUCCCGUCGUAGCCACCA DNA 1: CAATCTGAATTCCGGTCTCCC DNA 2: TGGTGGCTACGACGGGATT"
assay_endpoint = "binding signal"
assay_value = "0.00252 KA relative to UGCAUGU"

[[record]]
binder = "UGGGUAG (DNA:RNA) RNA: GGGAGACCGGAAUUCAGAUUGUCCUGGGUAGUUAAAUCCCGUCGUAGCCACCA DNA 1: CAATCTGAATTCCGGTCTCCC DNA 2: TGGTGGCTACGACGGGATT"
assay_endpoint = "binding signal"
assay_value = "0.0258 KA relative to UGCAUGU"

[[record]]
binder = "GGGACCG (DNA:RNA) RNA: GGGAGACCGGAAUUCAGAUUGUCCGGGACCGUUAAAUCCCGUCGUAGCCACCA DNA 1: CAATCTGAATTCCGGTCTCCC DNA 2: TGGTGGCTACGACGGGATT"
assay_endpoint = "binding signal"
assay_value = "0.0273 KA relative to UGCAUGU"

[[record]]
binder = "CAGACUG (DNA:RNA) RNA: GGGAGACCGGAAUUCAGAUUGUCCCAGACUGUUAAAUCCCGUCGUAGCCACCA DNA 1: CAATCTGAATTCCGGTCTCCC DNA 2: TGGTGGCTACGACGGGATT"
assay_endpoint = "binding signal"
assay_value = "0.0132 KA relative to UGCAUGU"

[[record]]
binder = "GGACUGU (DNA:RNA) RNA: GGGAGACCGGAAUUCAGAUUGUCCGGACUGUUUAAAUCCCGUCGUAGCCACCA DNA 1: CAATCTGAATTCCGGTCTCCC DNA 2: TGGTGGCTACGACGGGATT"
assay_endpoint = "binding signal"
assay_value = "0.0223 KA relative to UGCAUGU"

[[record]]
binder = "AAGUGUC (DNA:RNA) RNA: GGGAGACCGGAAUUCAGAUUGUCCAAGUGUCUUAAAUCCCGUCGUAGCCACCA DNA 1: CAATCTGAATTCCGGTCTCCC DNA 2: TGGTGGCTACGACGGGATT"
assay_endpoint = "binding signal"
assay_value = "0.0153 KA relative to UGCAUGU"

